B1: SNAP91 (parent)
chain: FAQPMMRPPFGAAAVPGTQLSPSP

variants of: B1; experiment: protein stability index of a GFP-peptide fusion (GPS, HEK-293T) (PSI 1-6); higher = more stable; conditions: c terminus: a fixed tail appended;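 further: lentivirally expressed fusions sorted by FACS into six bins by GFP to DsRed ratio, PSI derived from sequencing read proportions per bin multiplied by bin number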
Cut-off 3 on protein stability index, inclusive. At or above means satisfied; below means not satisfied.

Please review the following examples before continuing.
Q3G ... not satisfied
G17M ... not satisfied

Exam item: Say whether "F10E" shows protein stability index of 3 or more.
Marked response: satisfied

Exam item: Note, next up: "S21A"
Marked response: satisfied

Exam item: Note, next up: "Q3H"
Marked response: not satisfied

Exam item: Note, next up: "M5P"
Marked response: satisfied

Exam item: Note, next up: "A12F"
Marked response: not satisfied

Exam item: Note, next up: "P16M"
Marked response: not satisfied

Exam item: Note, next up: "Q19W"
Marked response: not satisfied

Exam item: Note, next up: "L20H"
Marked response: satisfied

Exam item: Note, next up: "A13M"
Marked response: not satisfied

Exam item: Note, next up: "P8Y"
Marked response: not satisfied
